Where do these numbers come from? They come from patent US20150344457A1.

- study.target: PRMT5/MEP50 (Homo sapiens)
- Construct: Expressed full-length human Flag-PRMT5/6His-MeP50 protein complex was purified; made in house; host or cells: Spodoptera frugiperda (SF9) insect cells, baculovirus (pDEST8)
- Sequence (O14744 with tags, fused parts or gaps): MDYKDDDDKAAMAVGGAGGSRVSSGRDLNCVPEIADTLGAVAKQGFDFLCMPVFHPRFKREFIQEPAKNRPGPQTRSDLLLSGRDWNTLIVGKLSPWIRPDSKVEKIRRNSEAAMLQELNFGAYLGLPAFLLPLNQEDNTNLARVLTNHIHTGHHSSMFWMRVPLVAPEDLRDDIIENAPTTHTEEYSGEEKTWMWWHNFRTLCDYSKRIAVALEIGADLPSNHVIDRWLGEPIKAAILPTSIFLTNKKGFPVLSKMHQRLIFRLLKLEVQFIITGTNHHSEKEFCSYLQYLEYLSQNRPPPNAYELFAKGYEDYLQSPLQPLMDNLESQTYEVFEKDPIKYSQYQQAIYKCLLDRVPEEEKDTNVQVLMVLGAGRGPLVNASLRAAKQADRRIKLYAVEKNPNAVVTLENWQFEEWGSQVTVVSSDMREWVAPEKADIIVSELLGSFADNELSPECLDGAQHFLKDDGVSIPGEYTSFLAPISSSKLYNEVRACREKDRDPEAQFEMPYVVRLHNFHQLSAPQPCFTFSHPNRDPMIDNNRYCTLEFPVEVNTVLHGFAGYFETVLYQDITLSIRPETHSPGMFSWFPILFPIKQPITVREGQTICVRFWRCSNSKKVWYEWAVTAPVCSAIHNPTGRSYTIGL
- Sequence (Q9BQA1 with tags, fused parts or gaps partner limits assumed): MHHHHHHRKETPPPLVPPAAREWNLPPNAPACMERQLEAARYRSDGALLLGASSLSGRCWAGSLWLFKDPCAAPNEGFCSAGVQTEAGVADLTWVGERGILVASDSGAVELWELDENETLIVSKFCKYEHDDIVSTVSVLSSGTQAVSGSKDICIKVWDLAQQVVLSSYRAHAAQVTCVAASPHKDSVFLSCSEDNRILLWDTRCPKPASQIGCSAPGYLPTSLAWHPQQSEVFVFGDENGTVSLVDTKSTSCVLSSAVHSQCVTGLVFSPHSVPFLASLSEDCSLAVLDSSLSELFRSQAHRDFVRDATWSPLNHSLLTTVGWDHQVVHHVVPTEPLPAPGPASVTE
- test: PRMT5 Biochemical Assay (PRMT5/MEP50 enzyme assay on peptide substrate, 3H-SAM Flashplate)
- measurement.context: Table D-2; read-out: Biochemical IC50
pIC50: −log10 of the molar value.
Each record here notes measured pIC50.

compound: Cn1cnc2ccc(-c3cccc(OCC(O)CN4CCc5ccc(Cl)cc5C4)c3)cc21 (centres unmarked)
pIC50: 5.00 to 6.00
--
compound: OC(COc1cccc(-c2cccc3cccnc23)c1)CN1CCc2ccccc2C1 (centres unmarked)
pIC50: > 7.00
--
compound: Cn1ncc2ccc(-c3cc(NCC(O)CN4CCc5ccccc5C4)ncn3)cc21 (centres unmarked)
pIC50: 6.00 to 7.00
--
compound: Cn1ccc2cnc(-c3ccnc(NCC(O)CN4CCc5ccccc5C4)c3)nc21 (centres unmarked)
pIC50: > 7.00
--
compound: OC(COc1cccc(-c2ccncc2)c1)CN1CCc2ccccc2C1 (centres unmarked)
pIC50: 5.00 to 6.00
--
compound: Cn1cnc2nc(-c3cccc(OCC(O)CN4CCc5ccccc5C4)c3)ncc21 (centres unmarked)
pIC50: 5.00 to 6.00
--
compound: OC(COc1cccc(-c2ccc3ncn(C4CCNCC4)c3c2)c1)CN1CCc2ccccc2C1 (centres unmarked)
pIC50: > 7.00
--
compound: OC(COCC1CC1)CN1CCc2ccccc2C1 (centres unmarked)
pIC50: 5.00 to 6.00
--
compound: OC(CNc1cc(-c2ccc3ncn(C4CCNCC4)c3c2)ccn1)CN1CCc2ccccc2C1 (centres unmarked)
pIC50: > 7.00
--
compound: CCOC(=O)CC1c2ccccc2CCN1CC(O)COc1cccc(-c2ccc3ncn(C)c3c2)c1 (centres unmarked)
pIC50: 5.00 to 6.00
--
compound: OC(COc1cccc2ccc(N3CCOCC3)nc12)CN1CCc2ccccc2C1 (centres unmarked)
pIC50: 5.00 to 6.00
--
compound: CN1CCC(n2cnc3ccc(-c4cccc(OCC(O)CN5CCc6ccccc6C5)c4)cc32)C1 (centres unmarked)
pIC50: > 7.00
--
compound: OC(COc1ccc(C2CCNCC2)cc1)CN1CCc2ccccc2C1 (centres unmarked)
pIC50: 5.00 to 6.00
--
compound: O=C(Cn1cnc2ccc(-c3cccc(OCC(O)CN4CCc5ccccc5C4)c3)cc21)N1CCCCC1 (centres unmarked)
pIC50: 6.00 to 7.00
--
compound: CCCCNCc1cccc(COCC(O)CN2CCc3ccccc3C2)c1 (centres unmarked)
pIC50: 6.00 to 7.00
--
compound: Cn1ncc2ccc(-c3cccc(OCC(O)CN4CCc5ccccc5C4)c3)cc21 (centres unmarked)
pIC50: > 7.00
--
compound: OC(COc1cccc(CN2CCCCC2)c1)CN1CCc2ccccc2C1 (centres unmarked)
pIC50: 5.00 to 6.00
--
compound: COc1ccc(-c2cccc(OCC(O)CN3CCc4ccccc4C3)c2)c(C)c1 (centres unmarked)
pIC50: 6.00 to 7.00
--
compound: OC(COc1cccc(-c2ccc3ncn(-c4ccccc4)c3c2)c1)CN1CCc2ccccc2C1 (centres unmarked)
pIC50: 6.00 to 7.00
--
compound: COc1ccc(Cl)c(-c2cccc(OCC(O)CN3CCc4ccccc4C3)c2)c1 (centres unmarked)
pIC50: 5.00 to 6.00
